- System: wild-type Gaussia luciferase (WT-Gluc)
- Assay method text: Luminescence intensity of substrates with wild-type Gaussia luciferase
- Format: biochemical, Gaussia princeps
- Cond: percentage relative to wild-type Pleuromamma xiphias luciferase with compound N0; substrate 10 μM
Measured quantity: Gluc relative intensity (%)
# output: bare number, implied unit %

# input Entry O=c1c(Cc2ccc(O)cc2)nc2c(Cc3ccccc3)[nH]c(-c3cccc(O)c3)cn1-2 [Substrate N0] : reported Gluc relative intensity = ?
# output 3.3

# input Return reported Gluc relative intensity; argument: O=c1c(Cc2ccc(F)cc2)nc2c(Cc3ccccc3)[nH]c(/C=C/c3ccccc3)cn1-2 [Substrate N8]
# output 0.0

# input Endpoint output: Gluc relative intensity of O=c1c(Cc2ccc(O)cc2)nc2c(Cc3ccccc3)[nH]c(/C=C/c3ccccc3)cn1-2 [Substrate N7] . Value?
# output 0.1

# input What measured Gluc relative intensity goes with Nc1ccc(-c2cn3c(=O)c(Cc4ccc(O)cc4)nc-3c(Cc3ccccc3)[nH]2)cc1 [Substrate N5] ?
# output 0.3

# input Please give the measured Gluc relative intensity for this molecule: O=c1c(Cc2ccc(O)cc2)nc2c(Cc3ccccc3)[nH]c(Cc3ccccc3)cn1-2 [Substrate N1]
# output 0.0

# input Could you tell me which Gluc relative intensity is on file for O=c1c(Cc2ccc(F)cc2)nc2c(Cc3ccccc3)[nH]c(Cc3ccccc3)cn1-2 [Substrate N2] ?
# output 0.0

# input Query (molecule): CN(C)c1ccc(-c2cn3c(=O)c(Cc4ccc(O)cc4)nc-3c(Cc3ccccc3)[nH]2)cc1 [Substrate N3] ; field requested: Gluc relative intensity
# output 0.2

# input Quick one: Gluc relative intensity of Nc1ccc(-c2cn3c(=O)c(Cc4ccc(F)cc4)nc-3c(Cc3ccccc3)[nH]2)cc1 [Substrate N6] ?
# output 0.0

# input Item CN(C)c1ccc(-c2cn3c(=O)c(Cc4ccc(F)cc4)nc-3c(Cc3ccccc3)[nH]2)cc1 [Substrate N4] has what recorded Gluc relative intensity?
# output 0.0

# input Could you tell me which Gluc relative intensity is on file for O=c1c(Cc2ccc(F)cc2)nc2c(Cc3ccccc3)[nH]c(-c3ccc(O)cc3)cn1-2 [f-CTZ] ?
# output 6.4
